System: NCI/ADR-RES
Experiment: NCI tumour cell line growth inhibition, 48 h
Active and inactive are the calls of the source. Rule as the data show it: active = GI50 up to about 1.1 µM and inactive = higher.
Quantity: GI50

Input: Which value of GI50 has been reported for C[C@]1(S(=O)(=O)c2ccccc2)C[C@H]2N(Cc3ccccc3)[C@@H]1CCC21OCCO1 in the records?
Output: 46.9 µM (inactive)

Input: What value of GI50 has been reported for the following molecule? Cc1c(S(=O)(=O)c2ccccc2)c(N)n(Cc2ccccc2)c1C
Output: > 100 µM (inactive)

Input: Consider the molecule shown here: COc1cc2c(cc1OC)CCN=C2 What is its recorded GI50?
Output: > 100 µM (inactive)

Input: GI50 lookup needed for CN(C)CCCNC(=O)N/N=C/c1ccccn1 , thanks.
Output: > 10 µM (inactive)

Input: Entry under review: C[N+](C)(C)CC1Cc2ccccc2C1=O (configuration not stated) . Reported GI50?
Output: > 4.78 µM (inactive)

Input: So what's the measured GI50 for this one? N#Cc1nc(-c2ccccn2)c(-c2ccccn2)nc1C#N
Output: 1.8 µM (inactive)

Input: Recorded GI50 of Nc1ncnc2c1ncn2C1C=CC(CP(=O)(O)O)C1 (configuration not stated) , please.
Output: > 100 µM (inactive)

Input: Fill in the blank: the reported GI50 of O=c1[nH]c2nccn2c2c1SCCN2 is ____.
Output: > 100 µM (inactive)

Input: Suppose we examine the molecule C[n+]1c(-c2ccc(/C=N/Nc3n[nH]c(=S)n3N/N=C/c3ccc(-c4cn5ccccc5[n+]4C)cc3)cc2)cn2ccccc21 ; what GI50 value has been reported?
Output: > 100 µM (inactive)

Input: // returns reported GI50 for input O=C(n1[nH]c(=O)n(-c2ccc([N+](=O)[O-])cc2)c1=O)C(Cl)(Cl)Cl
Output: > 75 µM (inactive)

Input: Quick check: GI50 of O=c1[nH]nc(Cc2ccccc2)n1C1CC1 ?
Output: > 100 µM (inactive)

Input: Please report the recorded GI50 for CCCCCCCCCCCCCCCC(=O)Nc1ccn(C2CCC(COP(=O)(O)OCC3OC(n4cc(F)c(=O)[nH]c4=O)CC3OC(C)=O)O2)c(=O)n1 (configuration not stated) .
Output: 16.7 µM (inactive)

Input: Form field: reported GI50 of CC1(C)CC2(C)OC(=N)C1(C#N)C2(C#N)C#N (configuration not stated)
Output: 13 µM (inactive)

Input: I have this molecule here, O=C(O)c1ccccc1/C=C1\Cc2ccccc2C1=O , and I need its recorded GI50.
Output: > 100 µM (inactive)

Input: Would you mind telling me what GI50 value was observed for C#CCSc1nc(-c2ccco2)n[nH]1 ?
Output: > 100 µM (inactive)

Input: GI50 for Clc1ccc(-c2nnc(C34CC5CC(CC(C5)C3)C4)o2)cc1 ?
Output: > 100 µM (inactive)

Input: Quick one: GI50 of CSc1ccc(/C=C/C(=O)c2nc3ccccc3[nH]2)cc1 ?
Output: 20.1 µM (inactive)

Input: Item under review: COc1cc(Br)cc2cc(-c3cn4ccsc4n3)c(=O)oc12 . Reported GI50?
Output: 34.2 µM (inactive)

Input: Need GI50, item N#Cc1c(-c2ccccc2)[nH]c(=O)n(C2OC(CO)C(O)C(O)C2O)c1=O (configuration not stated)
Output: > 100 µM (inactive)

Input: For the molecule shown here, O=C1O[C@H](COC(=O)c2ccccc2)[C@@H](OC(=O)c2ccccc2)C=C1OC(=O)c1ccccc1 , give the reported GI50.
Output: 18.9 µM (inactive)

Input: Need GI50 of CC(=O)N1C(c2[nH]c3ccccc3c2-c2ccccc2)CCN1c1ccccc1 (configuration not stated) , thanks.
Output: > 10 µM (inactive)

Input: Tell me the measured GI50 of O=C(Nc1cccc2ccccc12)c1cc2ccccc2oc1=O , please.
Output: 60.3 µM (inactive)

----------
System: HOP-92
Experiment: NCI tumour cell line growth inhibition, 48 h
The source made the active and inactive calls. Cut-off read from the data, not from the text of the source: active = GI50 up to about 1.1 µM and inactive = higher.
Give your call using only these classes: active, inactive

Input: For C=C1N(C=O)C(C)(C)N(O)C1(C)C , what call appears in the results of this test?
Output: inactive

Input: Status in this test for CN(/N=C/c1ccc(Cl)c(Cl)c1)C1=NCCCCN1 ?
Output: inactive

Input: Identify the outcome logged in this assay for the compound shown: CCn1c2c(c3c(C(=O)OC)c(O)ccc31)C(=O)c1ccccc1C2=O
Output: inactive

Input: For COC1(OC)N=C(N)C2(C#N)/C(=N/N(C)C)CC(C)C12C#N (centres undefined) , which call appears in the assay record?
Output: inactive

Input: Hey, what did the test say about O=C(/C=C(\N=P(c1ccccc1)(c1ccccc1)c1ccccc1)C(F)(F)C(F)(F)C(F)(F)C(F)(F)C(F)(F)C(F)(F)C(F)(F)F)c1ccccc1 ?
Output: inactive

Input: Given O=C(COC(=O)c1cccc2c(=O)c3ccccc3[nH]c12)Nc1ccc(S(=O)(=O)Nc2ncccn2)cc1 , state the outcome it received in this test.
Output: inactive

Input: Hi team, can someone confirm the assay call for CCOC(=O)N1C/C(=C\c2ccccc2)C(=O)/C(=C/c2ccccc2)C1 ?
Output: inactive

Input: Dear all, I need the recorded test outcome for CN(C)CCCNc1cc(O)c2c(c1O)C(=O)c1ccccc1C2=O , thank you.
Output: inactive

Input: For this compound, state the assay outcome: O=C1C(=Cc2cccc(O)c2)N=C(c2ccccc2)N1n1c(-c2ccccc2)nc2ccccc2c1=O
Output: inactive

Input: What classification did CN1C/C(=C\c2cccs2)C(O)/C(=C/c2cccs2)C1 (centres undefined) end up with in this test?
Output: inactive

Input: Any idea what this test logged for Cc1ccc(S(=O)(=O)n2c3c(c4ccccc42)CCN2C(=O)C(S(=O)(=O)c4ccccc4)=CCC32)cc1 (centres undefined) ?
Output: active

Input: Which outcome was assigned to O=C1NC(N2CCOCC2)=N/C1=C\c1ccco1 in this test?
Output: inactive

Input: GET /call?item= CC(CC[C@@]1(O)OC2C[C@H]3[C@@H]4CC[C@H]5CC(OC6OC(CO)C(OC7OC(CO)C(O)C(OC8OCC(O)C(O)C8O)C7OC7OC(CO)C(O)C(O)C7O)C(O)C6O)[C@H](O)CC5(C)[C@H]4CCC3(C)C2[C@@H]1C)COC1OC(CO)C(O)C(O)C1O (some centres undefined) returns the recorded outcome of this test.
Output: inactive

Input: Look up the recorded call for CC(=O)NC1C(=O)CC(c2ccccc2)N(C)C1c1ccccc1 (centres undefined) in this test.
Output: inactive

Input: Tell me the recorded outcome of this test for CC1=C2C(=O)NN=C2CCN1c1ccc(Br)cc1 .
Output: inactive

Input: Given CC(C)C[C@@H](NC(=O)[C@@H](Cc1cccc2ccccc12)NC(=O)N1CCOCC1)B(O)O , state the outcome it received in this test.
Output: inactive

Input: State the result this test recorded for CON(C)C(=O)[C@H]1C[C@@]1(C)CO .
Output: inactive

Input: Test call, this compound: COc1c(C)c2c(c(O)c1C/C=C(\C)CCC(=O)O)C(=O)OC2 [MYCOPHENOLIC ACID]
Output: inactive

Input: // outcome(item) with item = O=c1oc2ccccc2c2c1Sc1ccccc1N2
Output: inactive

----------
Consider the following compounds; for each one, report its GI50.
Tested on: RPMI-8226
Test: NCI tumour cell line growth inhibition, 48 h
Activity calls are given as the source filed them. No stated cut-off is given here; in the data, active = GI50 up to about 1.1 µM and inactive = higher.

Input: State the recorded GI50 for this entry: COc1cccc(C2c3cc4c(cc3OC(O)C2C)OCO4)c1OC (configuration not stated)
Output: 2.13 µM (inactive)

Input: Please give the measured GI50 for this compound: COc1cc(C2c3cc4c(cc3OC(NN)C2C)OCO4)cc(OC)c1O (configuration not stated)
Output: 3.95 µM (inactive)

Input: Returns the measured GI50 for the input compound. Input: CCCCn1/c(=N/C(=S)N(C)C)ss/c1=N\C(=S)N(C)C
Output: > 100 µM (inactive)

Input: Returns the measured GI50 for the input compound. Input: CC(C)(C)[Si](C)(C)OCC1OC(n2cnc3c(N)ncnc32)CC1O (configuration not stated)
Output: 52.8 µM (inactive)

Input: Which measured GI50 value corresponds to CC1(Br)C(=O)NC(=O)N(C2CC(N=[N+]=[N-])C(CO)O2)C1N=[N+]=[N-] (configuration not stated) ?
Output: 92.5 µM (inactive)

Input: For CNc1ccc([S+]([O-])Nc2ccccc2)cc1 (configuration not stated) , what is its reported GI50?
Output: 39.8 µM (inactive)

Input: Field request: GI50 | item: Clc1ccc(-c2nnc(C34CC5CC(CC(C5)C3)C4)o2)cc1
Output: > 100 µM (inactive)

Input: Sample CCOC(=O)C(=O)C(=O)NN(C)C1=NCCN1 — what was its GI50?
Output: > 100 µM (inactive)

Input: // GI50 lookup, key: Cc1ccc(S(=O)(=O)N(/N=C/C=C/c2ccccc2)c2nnc(-c3ccccc3)c(-c3ccccc3)n2)cc1
Output: 11.3 µM (inactive)

Input: Report GI50 for Oc1cn(-c2ccc(Cl)cc2)nc1-c1n[nH]c(=S)n1-c1ccccc1 please.
Output: 5.46 µM (inactive)

Input: Which GI50 reading was recorded for the compound CC12CCC3(C1)[C@H](CC2=O)C[C@@H](OC(=O)c1ccccc1)C1C(C)(CO)CCC[C@@]13C (some centres not stated) ?
Output: 0.746 µM (active)

Input: Given the entry O=C1NC(=O)C(C(=O)C(=O)Nc2ccc(Cl)cc2Cl)C(=O)N1 , report its measured GI50.
Output: > 100 µM (inactive)

Input: What value of GI50 has been reported for the following compound? O=C(/C=C(\N=P(c1ccccc1)(c1ccccc1)c1ccccc1)C(F)(F)C(F)(F)C(F)(F)C(F)(F)C(F)(F)C(F)(F)C(F)(F)F)c1ccccc1
Output: > 100 µM (inactive)

Input: Field request: GI50 | item: CC1(c2ccccc2Cl)C(C#N)C(=O)NC(=O)C1C#N (configuration not stated)
Output: 22.7 µM (inactive)

Input: Which GI50 reading was recorded for the compound C=CC[C@H]1[C@H](O[Si](C)(C)C(C)(C)C)C=CC(=O)[C@@H]1CC(=O)OCC ?
Output: 2.31 µM (inactive)

Input: Recorded GI50 of O=c1c2c(c1=O)C1(SCCCS1)c1cc(Cl)ccc1O2 , please.
Output: > 100 µM (inactive)

Input: Any idea what its GI50 is? The compound is Cn1c(=O)oc2cc(C(=O)CSC(=S)N3CCCCCC3)ccc21
Output: > 100 µM (inactive)

Input: Item COc1ccc(C2CC(c3c(O)ccc4ccccc34)=NN2)cc1OC (configuration not stated) has what recorded GI50?
Output: 8 µM (inactive)

Input: # input compound: O=C(O)Cc1cc(Cl)ccc1O ; wanted: its GI50
Output: > 100 µM (inactive)

Input: Endpoint output: GI50 of Cc1ccc(S(=O)(=O)n2c3c(c4ccccc42)CCN2C(=O)C(S(=O)(=O)c4ccccc4)=CCC32)cc1 (configuration not stated) . Value?
Output: 0.327 µM (active)

Input: So what's the measured GI50 for this one? O=C(CCC1CCCCC1)NCc1ccc(C(=O)O)cc1
Output: > 100 µM (inactive)

Input: Which GI50 is listed for O=C1NC2(CCCC2)C2CCCCC12O (configuration not stated) ?
Output: > 100 µM (inactive)
